Recorded values, source patent US20230014181A1.

System: human iPSC neurons and astrocytes treated with 5 μM sAβ42s
experimentNotes: Focused small molecule screen, double culture (neuron, astrocyte), rescue from sAβ42s toxicity, high content imaging
Format: cell-based
runParameters: 50 μM compound; double culture; 5 μM sAβ42s
Experimental: […] Neurons from both NSC lines were evaluated by immunofluorescence staining. […]
Where a SMILES comes first, the peptide text is derived from it. [ ]: non-standard residue; d: D form. Nle = CCCC[C@H](N)C(=O)O

>  <molecule>
N#C/C(=C\c1ccc(O)c(O)c1)C(=O)OCCc1cccs1 [2-TEDC]

>  <% Synapse rescue (%)>
10

$$$$
>  <molecule>
CCCC[C@@H](C=O)NC(=O)[C@H](CC(C)C)NC(=O)[C@H](CC(C)C)NC(C)=O [Ac-Leu-Leu-Nle-CHO] (Ac-Leu-Leu-[Nle]-aldehyde)

>  <% Synapse rescue (%)>
2

$$$$
>  <molecule>
Cc1ccc2c(c1)C(=O)[C@]1(O)CCN(c3ccccc3)C1=N2 [(S)-(−)-Blebbistatin]

>  <% Synapse rescue (%)>
12

$$$$
>  <molecule>
C=C[C@@]1(C)CC(=O)[C@]2(O)[C@@]3(C)[C@@H](O)CCC(C)(C)[C@@H]3[C@H](OC(=O)CCN(C)C)[C@H](OC(C)=O)[C@@]2(C)O1.Cl [NKH 477]

>  <% Synapse rescue (%)>
−5

$$$$
>  <molecule>
O=C1Nc2ccc(I)cc2/C1=C/c1cc(Br)c(O)c(Br)c1 [GW 5074]

>  <% Synapse rescue (%)>
8

$$$$
>  <molecule>
COC(=O)C1(C)c2[nH]c3ccccc3c2CCN1C(=O)CCl (stereo not shown) [PDI Inhibitor 16F16]

>  <% Synapse rescue (%)>
−13

$$$$
>  <molecule>
CC1=NN(c2ccc(C(=O)O)cc2)C(=O)/C1=C\c1ccc(-c2cc(C)c(C)cc2[N+](=O)[O-])o1 [C 646]

>  <% Synapse rescue (%)>
19

$$$$

----------
System: human iPSC neurons, astrocytes and microglia treated with 5 μM sAβ42s
experimentNotes: Focused small molecule screen, triple culture (neuron, astrocyte, microglia), rescue from sAβ42s toxicity
Format: cell-based
runParameters: 0.78 μM compound
Where a SMILES comes first, the peptide text is derived from it. [ ]: non-standard residue; d: D form. Nle = CCCC[C@H](N)C(=O)O
Label yes for high-side % MAP2 rescue (at or above 40%) and no for low-side % MAP2 rescue (below it).

>  <compound>
CCCCCCCCCCCCCCCCCC(=O)NCCc1ccc(O)c(O)c1

>  <category>
no

$$$$
>  <compound>
O=C1NC(=O)c2c1c1c3ccccc3n3c1c1c2c2ccccc2n1C1CCC3O1

>  <category>
no

$$$$
>  <compound>
CCCC[C@@H](C=O)NC(=O)[C@H](CC(C)C)NC(=O)[C@H](CC(C)C)NC(C)=O [Ac-Leu-Leu-Nle-CHO] (Ac-Leu-Leu-[Nle]-aldehyde)

>  <category>
no

$$$$
>  <compound>
O=C(Nc1cccc(Br)c1)c1cccc(S(=O)(=O)N2CCCCCC2)c1

>  <category>
no

$$$$
>  <compound>
CC1=NN(c2ccc(C(=O)O)cc2)C(=O)/C1=C\c1ccc(-c2cc(C)c(C)cc2[N+](=O)[O-])o1

>  <category>
no

$$$$
>  <compound>
CCN(CC)CCNC(=O)c1c(C)[nH]c(/C=C2\C(=O)Nc3ccc(F)cc32)c1C

>  <category>
yes

$$$$
>  <compound>
CN(C)S(=O)(=O)c1ccc2c(c1)/C(=C/c1cc3c([nH]1)CCCC3)C(=O)N2

>  <category>
yes

$$$$
>  <compound>
O=C1Nc2ccc3ncsc3c2/C1=C/Nc1ccc(S(=O)(=O)Nc2ccccn2)cc1

>  <category>
no

$$$$

----------
Tested on: human iPSC neurons and astrocytes treated with 5 μM sAβ42s
experimentNotes: Focused small molecule screen, double culture (neuron, astrocyte), rescue from sAβ42s toxicity, high content imaging
Format: cell-based
runParameters: Homo sapiens, iPSC; 50 μM compound; double culture; 5 μM sAβ42s; read-out: % Cux2 rescue
Structures can show the parent of a compound that is named as a salt. Where a SMILES comes first, the peptide text is derived from it. The star is where a group is joined. Cbz = O=C(OCc1ccccc1)*
Label satisfied for high-side percent rescue from sAβ42s toxicity at 50 µM (at or above 30%) and not satisfied for low-side percent rescue from sAβ42s toxicity at 50 µM (below it).

>  <molecule>
CN(C)[C@@H]1C(O)=C(C(N)=O)C(=O)[C@@]2(O)C(O)=C3C(=O)c4c(O)ccc(Cl)c4[C@@H](O)[C@H]3C[C@@H]12 [Demeclocydine hydrochloride, Demeclocycline hydrochloride]

>  <category>
satisfied

$$$$
>  <molecule>
N#Cc1ccnc(Nc2cc(C3CCN(C4COC4)CC3)cc(N3CCC(F)(F)C3)n2)c1 [GNE-3511]

>  <category>
satisfied

$$$$
>  <molecule>
COc1cccc2c1C(=O)c1c(O)c3c(c(O)c1C2=O)C[C@@](O)(C(C)=O)C[C@@H]3O[C@H]1C[C@H](N)[C@H](O)[C@H](C)O1 [Daunorubicin hydrochloride]

>  <category>
not satisfied

$$$$
>  <molecule>
O=c1cc(-c2ccccc2)oc2c(O)c(O)ccc12 [7,8-Dihydroxyflavone]

>  <category>
satisfied

$$$$
>  <molecule>
CCCC[C@@H](C=O)NC(=O)[C@H](CC(C)C)NC(=O)OCc1ccccc1 [Calpeptin]

>  <category>
satisfied

$$$$
>  <molecule>
CC(C)C[C@@H](C=O)NC(=O)[C@H](CC(C)C)NC(=O)[C@H](CC(C)C)NC(=O)OCc1ccccc1 [MG-132] (Cbz-Leu-Leu-Leu-aldehyde)

>  <category>
satisfied

$$$$
>  <molecule>
O=c1cc(-c2ccc(O)c(O)c2)oc2cc(O)cc(O)c12 [Luteolin]

>  <category>
not satisfied

$$$$
>  <molecule>
CC(=O)c1c(C)c2cnc(Nc3ccc(N4CCNCC4)cn3)nc2n(C2CCCC2)c1=O [PD 0332991 isethionate]

>  <category>
not satisfied

$$$$

----------
Test system: human iPSC neurons and astrocytes treated with 5 μM sAβ42s
experimentNotes: Focused small molecule screen, double culture (neuron, astrocyte), rescue from sAβ42s toxicity, high content imaging
Format: cell-based
runParameters: 50 μM compound; double culture; 5 μM sAβ42s
Where a SMILES comes first, the peptide text is derived from it. [ ]: non-standard residue; d: D form. Nle = CCCC[C@H](N)C(=O)O

>  <compound>
CC1=NN(c2ccc(C(=O)O)cc2)C(=O)/C1=C\c1ccc(-c2cc(C)c(C)cc2[N+](=O)[O-])o1

>  <% B3T rescue [%]>
49

$$$$
>  <compound>
O=C(Nc1cccc(Br)c1)c1cccc(S(=O)(=O)N2CCCCCC2)c1

>  <% B3T rescue [%]>
42

$$$$
>  <compound>
N#C/C(=C\c1ccc(O)c(O)c1)C(=O)OCCc1cccs1

>  <% B3T rescue [%]>
31

$$$$
>  <compound>
N#CC(c1ccnc(NCCc2cccnc2)n1)c1nc2ccccc2s1 (stereo not drawn)

>  <% B3T rescue [%]>
−16

$$$$
>  <compound>
Cc1ccc2c(c1)C(=O)[C@]1(O)CCN(c3ccccc3)C1=N2 [(S)-(−)-Blebbistatin]

>  <% B3T rescue [%]>
49

$$$$
>  <compound>
CCCC[C@@H](C=O)NC(=O)[C@H](CC(C)C)NC(=O)[C@H](CC(C)C)NC(C)=O [Ac-Leu-Leu-Nle-CHO] (Ac-Leu-Leu-[Nle]-aldehyde)

>  <% B3T rescue [%]>
0

$$$$
>  <compound>
O=C1NC(=O)C(c2ccccc2[N+](=O)[O-])=C1Nc1ccc(O)c(Cl)c1

>  <% B3T rescue [%]>
39

$$$$
>  <compound>
C=C[C@@]1(C)CC(=O)[C@]2(O)[C@@]3(C)[C@@H](O)CCC(C)(C)[C@@H]3[C@H](OC(=O)CCN(C)C)[C@H](OC(C)=O)[C@@]2(C)O1.Cl

>  <% B3T rescue [%]>
38

$$$$
>  <compound>
CN1C(=O)C(Cc2c[nH]c3ccccc23)NC1=S (stereo not drawn)

>  <% B3T rescue [%]>
11

$$$$
>  <compound>
O=C1Nc2ccc3ncsc3c2/C1=C/Nc1ccc(S(=O)(=O)Nc2ccccn2)cc1

>  <% B3T rescue [%]>
47

$$$$
>  <compound>
O=C1Nc2ccc(I)cc2/C1=C/c1cc(Br)c(O)c(Br)c1

>  <% B3T rescue [%]>
48

$$$$
>  <compound>
CCN(CC)CCNC(=O)c1c(C)[nH]c(/C=C2\C(=O)Nc3ccc(F)cc32)c1C

>  <% B3T rescue [%]>
4

$$$$
>  <compound>
O=C1NC(=O)c2c1c1c3ccccc3n3c1c1c2c2ccccc2n1C1CCC3O1

>  <% B3T rescue [%]>
72

$$$$
>  <compound>
COC(=O)C1(C)c2[nH]c3ccccc3c2CCN1C(=O)CCl (stereo not drawn)

>  <% B3T rescue [%]>
−22

$$$$
>  <compound>
CN(C)S(=O)(=O)c1ccc2c(c1)/C(=C/c1cc3c([nH]1)CCCC3)C(=O)N2

>  <% B3T rescue [%]>
−188

$$$$
